Each record here notes measured IC50.
# Test system: SKBE2C neuroblastoma cells (WT)
# TEST SUMMARY: xCELLigence in vitro growth inhibition (IC50, Dm)
# Format: cell-based
# EXPERIMENTAL PARAMETERS: Homo sapiens, Neuroblastoma cell, 72 hours, single agent, read-out: IC50
Output spec: scalar in µM, unitless text.

# QUERY SMILES, IC50 (µM)
rows = [
    ("Cc1cc(Nc2ncc(Cl)c(Nc3ccccc3S(=O)(=O)C(C)C)n2)c(OC(C)C)cc1C1CCNCC1", 0.603),
]

Alright, here's another compound for you.
Q. So what's the measured IC50 for this one? CN(C)C(=O)c1cc2cnc(Nc3ccc(N4CCNCC4)cn3)nc2n1C1CCCC1
A. 0.146

----------
Each record here notes measured IC50.
# System: SHSY5Y neuroblastoma cells (F1174L)
# TEST SUMMARY: xCELLigence in vitro growth inhibition and Chou-Talalay combination index
# Type: cell-based
# EXPERIMENTAL PARAMETERS: Homo sapiens, SH-SY5Y, 72 hours, single agent, read-out: IC50
Answer format: value, then unit.

# QUERY SMILES, IC50
rows = [
    ("Cc1cc(Nc2ncc(Cl)c(Nc3ccccc3S(=O)(=O)C(C)C)n2)c(OC(C)C)cc1C1CCNCC1", "0.963 µM"),
]

Alright, here's another compound for you.
Q. So what's the measured IC50 for this one? CN(C)C(=O)c1cc2cnc(Nc3ccc(N4CCNCC4)cn3)nc2n1C1CCCC1
A. 0.111 µM

----------
# Test system: SKBE2C neuroblastoma cells (WT)
# TEST SUMMARY: xCELLigence in vitro growth inhibition (IC50, Dm)
# Type: cell-based
# EXPERIMENTAL PARAMETERS: Homo sapiens, Neuroblastoma cell, single agent, read-out: Dm (median-effect dose)
Each record here notes measured pIC50.
pIC50 here is simply -log10 of the concentration when that concentration is written in mol/L.

# COMPOUND, OBSERVED PROPERTY, RECORDED RESULT
rows = [
    ("CN(C)C(=O)c1cc2cnc(Nc3ccc(N4CCNCC4)cn3)nc2n1C1CCCC1 [Compound B]", "pIC50", 6.35),
]

Alright, here's another compound for you.
Q. Requested read-out pIC50, target or system SKBE2C neuroblastoma cells (WT), entry Cc1cc(Nc2ncc(Cl)c(Nc3ccccc3S(=O)(=O)C(C)C)n2)c(OC(C)C)cc1C1CCNCC1 [Compound A1]
A. 6.46

----------
# Tested on: NB1691 neuroblastoma cells (WT)
# TEST SUMMARY: xCELLigence in vitro growth inhibition and Chou-Talalay combination index
# Type: cell-based
# EXPERIMENTAL PARAMETERS: Homo sapiens, NB-1691, 72 hours, single agent, read-out: IC50
OBSERVED PROPERTY: IC50 (nM)
Output spec: scalar in nM, unitless text.

# QUERY SMILES, IC50 [nM]
data = [
    ("CN(C)C(=O)c1cc2cnc(Nc3ccc(N4CCNCC4)cn3)nc2n1C1CCCC1", 315),
]

Q. So what's the measured IC50 for this one? Cc1cc(Nc2ncc(Cl)c(Nc3ccccc3S(=O)(=O)C(C)C)n2)c(OC(C)C)cc1C1CCNCC1
A. 1930

src = patent US20160361314A1
